src = ChEMBL document CHEMBL3745675

experimentalDetails: Ratio of drug level in brain to plasma in Wistar Hann rat at 5 mg/kg, sc after 1 hr
Type: ADME, organism-based
valueType: Kp at 1 h

Please indicate Kp at 1 h recorded for Cn1ccc(-c2ccc(Cn3cc(C(=O)N[C@H]4CCOC[C@@H]4O)c4ncccc43)cc2)n1
0.21

* * *

experimentalDetails: Ratio of unbound AUC in brain to plasma in Wistar Hann rat at 5 mg/kg, sc after 2 hrs
Format: ADME, organism-based
conditionParameters: brain and plasma, read-out: Ratio AUC
valueType: Kp uu at 2 h
Lab note: record the figure alone, no unit after it.

Give me measured Kp uu at 2 h, please, for this compound: Cn1ccc(-c2ccc(Cn3cc(C(=O)N[C@H]4CCOC[C@@H]4O)c4ncccc43)cc2)n1
0.13

* * *

experimentalDetails: AUC (0 to tlast) in Wistar Hann rat CSF at 5 mg/kg, sc
Format: ADME, organism-based, Cerebrospinal fluid
valueType: AUC(0-t) (ng·h/mL)
Report as a plain number; the unit ng·h/mL is understood.

# return recorded AUC(0-t) for input Cn1ccc(-c2ccc(Cn3cc(C(=O)N[C@H]4CCOC[C@@H]4O)c4ncccc43)cc2)n1
240

* * *

experimentalDetails: Drug concentration in Wistar Hann rat plasma at 5 mg/kg, sc after 4 hrs
Format: ADME, organism-based
valueType: concentration at 4 h (µM)
Express it in µM; write the number only.

For the molecule Cn1ccc(-c2ccc(Cn3cc(C(=O)N[C@H]4CCOC[C@@H]4O)c4ncccc43)cc2)n1 , report concentration at 4 h.
3.19

* * *

experimentalDetails: Drug concentration in Wistar Hann rat plasma at 5 mg/kg, sc after 1 hr
Format: ADME, organism-based
valueType: concentration at 1 h
For clarity, give the value followed by its unit.

Determine its reported concentration at 1 h: Cn1ccc(-c2ccc(Cn3cc(C(=O)N[C@H]4CCOC[C@@H]4O)c4ncccc43)cc2)n1
5.03 µM

* * *

experimentalDetails: Ratio drug level in brain to plasma in C57BL/6j mouse at 10 mg/kg, sc after 2 hrs
Assay type: ADME, organism-based
conditionParameters: read-out: BPR
valueType: Kp at 2 h

Please indicate Kp at 2 h recorded for Cn1ccc(-c2ccc(Cn3cc(C(=O)N[C@H]4CCOC[C@@H]4O)c4ncccc43)cc2)n1
0.06

* * *

experimentalDetails: AUC (0 to tlast) in Wistar Hann rat plasma at 5 mg/kg, sc
Type: ADME, organism-based
valueType: AUC(0-t) (ng·h/mL)
The reply should contain only the number, in ng·h/mL.

Respond only with AUC(0-t) recorded for Cn1ccc(-c2ccc(Cn3cc(C(=O)N[C@H]4CCOC[C@@H]4O)c4ncccc43)cc2)n1
9400

* * *

experimentalDetails: Cmax in Wistar Hann rat at 2 mg/kg, po
Assay type: ADME, organism-based
Set-up: dose 2 mg/kg, route oral
conditionParameters: in vivo
valueType: Cmax
Please give the number followed by its unit.

Look up Cmax of Cn1ccc(-c2ccc(Cn3cc(C(=O)N[C@H]4CCOC[C@@H]4O)c4ncccc43)cc2)n1 and report it.
600 ng/mL

* * *

experimentalDetails: Ratio of unbound AUC in CSF to plasma in Wistar Hann rat at 5 mg/kg, sc after 1 hr
Type: ADME, organism-based
conditionParameters: CSF and plasma, read-out: Ratio AUC
valueType: Kp uu at 1 h
// response body must contain only the number

Please give the documented Kp uu at 1 h of Cn1ccc(-c2ccc(Cn3cc(C(=O)N[C@H]4CCOC[C@@H]4O)c4ncccc43)cc2)n1
0.29
